target: Caspase-9 (Homo sapiens, UniProt P55211); test: Inhibition of human recombinant caspase 9 preincubated for 10 mins
Sequence (P55211 1-315 limits assumed): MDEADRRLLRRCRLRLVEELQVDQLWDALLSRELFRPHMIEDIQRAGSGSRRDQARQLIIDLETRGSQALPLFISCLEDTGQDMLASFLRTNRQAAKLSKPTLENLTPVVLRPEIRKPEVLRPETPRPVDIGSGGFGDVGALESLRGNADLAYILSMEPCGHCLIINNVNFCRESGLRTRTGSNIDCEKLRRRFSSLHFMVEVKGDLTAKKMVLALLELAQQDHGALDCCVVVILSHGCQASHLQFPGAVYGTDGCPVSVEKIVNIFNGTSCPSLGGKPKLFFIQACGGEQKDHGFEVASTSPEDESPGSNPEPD
Sequence (P55211 331-416 limits assumed): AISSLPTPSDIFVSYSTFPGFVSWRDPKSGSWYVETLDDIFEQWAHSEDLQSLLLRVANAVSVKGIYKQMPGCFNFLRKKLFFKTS
metric: IC50 (µM)
One number for each entry, in µM.

Name the recorded IC50 of the item `CCOC(=O)COc1cc(C(=O)O)c(O)c2ccccc12` in your answer.
93

====

target: Caspase-3 (Homo sapiens, UniProt P42574); assay: Inhibition of human recombinant caspase 3 preincubated for 10 mins
Sequence (P42574 29-175 limits assumed): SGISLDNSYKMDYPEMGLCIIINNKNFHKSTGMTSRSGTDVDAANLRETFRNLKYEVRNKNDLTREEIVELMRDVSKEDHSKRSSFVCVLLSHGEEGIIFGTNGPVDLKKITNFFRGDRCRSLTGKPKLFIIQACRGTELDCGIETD
Sequence (P42574 176-277 limits assumed): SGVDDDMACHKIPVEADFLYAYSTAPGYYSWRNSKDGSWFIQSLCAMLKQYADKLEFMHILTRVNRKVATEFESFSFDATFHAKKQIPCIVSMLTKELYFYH
metric: IC50

Return reported IC50. Input compound: `CCOC(=O)COc1cc(C(=O)O)c(O)c2ccccc12`
13.6 µM

====

biological target: Caspase-8 (Homo sapiens); experiment: Inhibition of human recombinant caspase 8 preincubated for 10 mins
Sequence (Q14790 217-374 limits assumed): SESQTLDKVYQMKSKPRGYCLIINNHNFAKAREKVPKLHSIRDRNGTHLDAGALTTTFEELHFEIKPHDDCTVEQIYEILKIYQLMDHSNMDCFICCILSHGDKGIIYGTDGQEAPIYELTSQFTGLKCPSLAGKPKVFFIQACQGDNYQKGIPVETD
Sequence (Q14790 385-479 limits assumed): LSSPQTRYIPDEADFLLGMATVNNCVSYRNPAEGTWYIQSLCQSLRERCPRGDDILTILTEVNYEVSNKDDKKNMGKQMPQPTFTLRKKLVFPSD
metric: IC50

Identify measured IC50 associated with `CCOC(=O)COc1cc(C(=O)O)c(O)c2ccccc12`
> 100 µM

====

biological target: Caspase-7 (Homo sapiens, UniProt P55210); experiment: Inhibition of human recombinant caspase 7 preincubated for 10 mins
Sequence (P55210 24-198 limits assumed): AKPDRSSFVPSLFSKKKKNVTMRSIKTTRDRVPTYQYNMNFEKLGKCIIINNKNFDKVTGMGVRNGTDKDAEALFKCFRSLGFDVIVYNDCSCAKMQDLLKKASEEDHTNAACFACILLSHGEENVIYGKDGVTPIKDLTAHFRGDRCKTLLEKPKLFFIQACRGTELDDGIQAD
Sequence (P55210 207-303 limits assumed): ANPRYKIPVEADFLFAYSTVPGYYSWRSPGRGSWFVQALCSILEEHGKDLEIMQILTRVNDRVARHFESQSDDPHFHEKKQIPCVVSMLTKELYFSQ
metric: IC50 (µM)
Numbers only, in µM.

Name the recorded IC50 of the compound listed here: `CCOC(=O)COc1cc(C(=O)O)c(O)c2ccccc12`
84.9
